What %Inh was measured for each of the following?
# Tested on: SgK110
# recorded.conditions: concentration: 1 μM,replicates: in singlicate; n = 1;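 note: KINOMEscan kinase panel screen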

Req: Value lookup for %Inh; key = N#Cc1cccc(C(=O)NC2CCN(c3ccnc(Nc4ccc(F)cc4)n3)C2)c1 (centres unmarked)
Resp: 5%

Req: Field request: %Inh | item: "CS(=O)(=O)c1cccc(CNc2nc(Nc3ccc4c(c3)[C@@H]3C[C@@H]4CNC3=O)ncc2C(F)(F)F)c1"
Resp: 0%

Req: Fill in the blank: the reported %Inh of "CCn1c(-c2nonc2N)nc2cncc(CNC3CCNCC3)c21.Cl" is ____.
Resp: 2%

Req: Which value of %Inh has been reported for "O=C(Nc1cccc(C(F)(F)F)c1)c1cccc(Oc2ccc3nccn3n2)c1" in the records?
Resp: 26%

Req: What value of measured %Inh is listed for "O=C(NOCC1CC1)c1cc(Br)c(F)c(F)c1Nc1ccc(I)cc1Cl" ?
Resp: 0%

Req: Request the reported %Inh associated with "Cn1ccc2ncnc(Oc3ccc(NC(=O)Nc4cccc(C(F)(F)F)c4)c(Cl)c3)c21"
Resp: 0%

Req: Any idea what %Inh was measured for "CN1CCN(CCCNc2nccc(-c3c(-c4ccc(F)cc4)nn4cc(C(N)=O)ccc34)n2)CC1" ?
Resp: 7%

Req: Entry under review: "Cn1ccc2ncnc(Oc3ccc(NC(=O)Nc4cccc(C(F)(F)F)c4)c(F)c3)c21" . Reported %Inh?
Resp: 0%

---

# Test system: CLK3
# recorded.conditions: concentration: 1 μM,replicates: in singlicate; n = 1
Give measured %Inh for each item. Keep answers brief.
Respond numerically; units are % and should not be typed.

Req: Dear colleague, I am looking for the recorded %Inh of the following compound: Cc1ccc(Nc2ccnc(Nc3ccc4c(c3)CS(=O)(=O)C4)n2)cc1O.Cl [GW579362]
Resp: 82

Req: Could you tell me which %Inh is on file for "Cn1ccc2ncnc(Oc3ccc(NC(=O)Nc4cnn(C(C)(C)C)c4)c(Cl)c3)c21" ?
Resp: 5

Req: Value lookup for %Inh; key = Cc1ccc2c(-c3ccnc(Nc4ccc(C(F)(F)F)cc4)n3)cnn2n1 [GW819776]
Resp: 31

Req: Need %Inh of CN1CCN(CCCNc2nccc(-c3c(-c4ccc(F)cc4)nn4cc(C(N)=O)ccc34)n2)CC1 [GW622475] , thanks.
Resp: 0

Req: Item under review: "CN(c1cccc(CNc2nc(Nc3ccc4c(c3)CC(=O)N4)ncc2C(F)(F)F)c1)S(C)(=O)=O" . Reported %Inh?
Resp: 16

Req: Find the recorded %Inh belonging to C[C@@H](Oc1cc(-n2cnc3ccc(-c4ccncc4)cc32)sc1C(N)=O)c1ccccc1Cl [GSK483724] and report it.
Resp: 37

Req: %Inh lookup needed for COc1cc2ncn(-c3cc(OCC4CCCCC4)c(C(N)=O)s3)c2cc1OC [GSK204559] , thanks.
Resp: 5

Req: I would be grateful if you could share the reported %Inh for CC(=O)c1c(-c2ccncc2)[nH]c(-c2ccncc2)c1C [GW493036] .
Resp: 65

---

# Tested on: FYN
# recorded.conditions: concentration: 1 μM,replicates: in singlicate; n = 1
value.kind: %Inh (%)
Field: numeric (%). Do not append units.

Req: What does the data say about its %Inh? Entry: "CCn1c(-c2nonc2N)nc2cncc(CNC3CCNCC3)c21.Cl"
Resp: 43

Req: Would you mind telling me what %Inh value was observed for "Cn1ccc2ncnc(Oc3ccc(NC(=O)Nc4cncc(C(F)(F)F)c4)c(Cl)c3)c21" ?
Resp: 0

Req: Entry under review: "C[C@@H]1CCN(C(=O)N2CCCC2)C[C@@H]1N(C)c1ncnc2[nH]ccc12" . Reported %Inh?
Resp: 59

Req: I have this molecule here, "Cn1ccc2ncnc(Oc3ccc(NC(=O)Nc4cnn(C(C)(C)C)c4)c(Cl)c3)c21" , and I need its recorded %Inh.
Resp: 0

Req: Which %Inh is listed for "Nc1nccc(-c2ccc3c(N)n[nH]c3c2)n1" ?
Resp: 32

Req: Tell me the measured %Inh of "O=C(Nc1ccccc1)c1cccc(Oc2ccc3nccn3n2)c1" , please.
Resp: 1

Req: // %Inh lookup, key: CC(C(=O)NC1CCN(c2ccnc(Nc3ccc(F)cc3)n2)C1)c1ccc(Cl)cc1 (centres unmarked)
Resp: 14

Req: Request the reported %Inh associated with "NC(=O)c1ccc(-c2cc3ncnc(SCC(=O)O)c3s2)cc1"
Resp: 0

Req: Item "O=C(Nc1cccc(Oc2ccc3nccn3n2)c1)Nc1cccc(C(F)(F)F)c1" has what recorded %Inh?
Resp: 31

Req: Look up %Inh: "CN(c1cccc(CNc2nc(Nc3ccc4c(c3)CC(=O)N4)ncc2C(F)(F)F)c1)S(C)(=O)=O"
Resp: 0

Req: May I ask what %Inh has been recorded for "CC(C)S(=O)(=O)N1CCN(Cc2ccc3c(c2)nc(NC(=O)c2ccsc2)n3C[C@H](O)c2ccccc2)CC1" ?
Resp: 73
